- Test system: MS2 coat protein
- assay-notes: apparent KD of MS2 coat protein; designed switch direction (-1 OFF switch, 1 ON switch): -1; higher = weaker reporter binding
- measurement-setup: input ligand: none
Listing of recorded apparent KD of MS2 coat protein by entry.
Numeric answer only, unit nM assumed.

Example results:
UCUGGUGCAGGAUAUACAUGAGGAUCACCCAUGUGAUCAGCAGUCCUCGGACUGCAAUGUAGAAGGGCACCAGA [E3/1-D2] (Eterna round: R97, puzzle: Exclusion 3) | 1230
GCUUGAGCAGGAUAUACAAUGAGCUUGAGAAAUCGAGUUCGACAUGAGGAUCACCCAUGUAGAAGGGUUCGAGU [-27.3, -25 kcal, A 31% 1 and 1bis] (Eterna round: R97, puzzle: Exclusion 2) | 24.3
AAACACUGAGGAUAUGCAUAACAACAAAGCCUCACGUGCCAACAUGAGGAUCACCCAUGUAGAAGGCAGUCCAA [Mod R3 Insanara 16 - Jieux - Exclusion 2] (Eterna round: R97, puzzle: Exclusion 2) | 30
UUUUUAUAUGAAGGAUAUACUUAACAUGAGGAUCACCCAUGUGGUGUUGUGAGUGAGUGAGUUUAGUAGAAGGUCAAUUAGUAU [JMF's solution 101] (Eterna round: R96, puzzle: Exclusion NG 2) | 295
UUUACAAGCUUAUGAUCCCACAUGAGGAUCACCCAUGUUGCUGCCGUGAGGUAGCUUUUAACAUAUGCUCGUCUUAU [JL TOV1 3.39] (Eterna round: R97, puzzle: Sensor, turn-off variant 1) | 838
CAGUACUGAGGAUAUACAUGAGGAUCACCCAUGUGUUCCAGCUAGGAAUCUAGCAAAAGUAGAAGGCAGUACUG [salish99_ex3_r3_094x] (Eterna round: R96, puzzle: Exclusion 3) | 25.1
CCUACUUACUAGGAUAUCAGAGUCGAAAGACUCUGAGAAGGAGUAACAUGAGGAUCACCCAUGUGUCCUAUAGG [Mod of Eli 11 - Jieux - Exclusion 6] (Eterna round: R97, puzzle: Exclusion 6) | 24.2
UACAUGAGGAUCACCCAUGUUUUGUCGUGUAUGGUAUUUAUCUAGGAUAUCAAUUUAGUCAUUUAUGAGAAGGAGAAUAUUAAU [JMF's solution 74] (Eterna round: R96, puzzle: Exclusion NG 3) | 38.4
CCUAGUUGGUAAGGAUAUCCUACACUGUUCUGACCCGUGCAAGCUACAUGAGGAUCACCCAUGUGGGAGAAGGUGCGUCAACGC [Design 12] (Eterna round: R96, puzzle: Exclusion NG 2) | 29.2
AUAUUGUGAGGAUAUGAACUUAGUAUGGAAAGAUACUAAGUUCAGAAGGCACAUGAGGAUCACCCAUGUUUCUC [Long static hairpin v12] (Eterna round: R97, puzzle: Exclusion 4) | 26.9

IN: Quickly give me recorded apparent KD of MS2 coat protein for AGUACUGACACGUUGGUGUUAGUACAAUAAGCUUGUGACACAUGAGGAUCACCCAUGUCCUCAUAAGCUCGUCUUAU [salish99_TOv2_r2_094] (Eterna round: R96, puzzle: Sensor v3, turn-off variant 2)
OUT: 25.4

---

- Test system: MS2 coat protein
- assay-notes: apparent KD of MS2 coat protein; designed switch direction (-1 OFF switch, 1 ON switch): -1; higher = weaker reporter binding
- measurement-setup: Eterna round: R95; input ligand: FMN 200 uM
measure: apparent KD of MS2 coat protein
A bare number is not enough; add the unit after it.

GCUUUUCUUUUCCUUUCUUACAUGAGGAUCACCCAUGUUUCUUGUCCUGCUCGCGUUGCUCGUCUGUCUGUCUGUUG [salish99_TOv1_r3_080] (puzzle: Sensor v3, turn-off variant 1) | 28.7 nM
GAUUAUGCGAGCUUUAGGGACAUGAGGAUCACCCAUGUUCGUCUUAUUGGUCUGGAUACACUAACAUACCUAAAUCU [JMF 14] (puzzle: Sensor v3, turn-off variant 1) | 19.2 nM
AGUUGGCGAGGAUAUACAUGAGGAUCACCCAUGUGAGAGAAAAAAGUGAGGAAGAAAAGUAGAAGGCGCUGACC [salish99_ex3_r3_041] (puzzle: Exclusion 3) | 245 nM
AGAUGUAGAUACCGAUCCUACAUGAGGAUCACCCAUGUAGCUAGACGUGCACGCGUAGCUCGUCAGACUACCAGUAG [salish99_TOv1_r3_086] (puzzle: Sensor v3, turn-off variant 1) | 372 nM
CCGGAAUUGGAGGAUAUAGGAGUCGAUAGACACCUAGAAGGUCAGACAUGAGGAUCACCCAUGUGUCCUACCGG [Fiskers Ex 6 - 87] (puzzle: Exclusion 6) | 19.9 nM

IN: Complete the entry with apparent KD of MS2 coat protein for AUAAUAAAGGAGGAUAUCGUUACGGAAACGUAACGAGAAGGUCUAACAUGAGGAUCACCCAUGUUCCUCAAAUA [Mat - Exclusion 6 - Eli Mod - D53] (puzzle: Exclusion 6)
OUT: 49.9 nM

IN: Name the recorded apparent KD of MS2 coat protein of the sequence listed here: UACCGGCGGACCGAGGCUUUUUGCUCGUCUUGUACUACAACAUGAGGAUCACCCAUGUGGUGGUGGUCCGUUGUAGU [JL ViennaUCT Bitein mod 6] (puzzle: Sensor v3, turn-off variant 2)
OUT: 18.9 nM

IN: Give me measured apparent KD of MS2 coat protein, please, for this sequence: CUGGGCCGAGGAUAUAUUAUGUGAAACAUGAGGAUCACCCAUGUAAUAUGAUGGAUGUAAAUAGAAGGCGGUCUAG [Mat - Exclusion 5 - JL mod - D27] (puzzle: Exclusion 5)
OUT: 28.2 nM

IN: Supply apparent KD of MS2 coat protein value. Item: UGUUGGCGAGGAUAUACAUGAGGAUCACCCAUGUGAGAGAAAAAAGUGAGGAAGAAAAGUAGAAGGCGCUGACA [salish99_ex3_r3_045] (puzzle: Exclusion 3)
OUT: 371 nM

IN: For the sequence GAGUAGGGAGGAUAUACGUGCUCAAUCCCGCGAAGCGGGAAACAUGAGGAUCACCCAUGUAGAAGGCCCAUAAA [Inceveus] (puzzle: Exclusion 2) , give its reported apparent KD of MS2 coat protein.
OUT: 88.4 nM

---

- Test system: MS2 coat protein
- assay-notes: apparent KD of MS2 coat protein; designed switch direction (-1 OFF switch, 1 ON switch): -1; higher = weaker reporter binding
- measurement-setup: input ligand: FMN 200 uM
Label no if apparent KD of MS2 coat protein falls below 20 nM; label yes in every other case.

Completed entries (count: 3):
UGACAGUGAGGAUAUUAUCUGAGGGACAUGAGGAUCACCCAUGUGCACUCACGGGCCCAGUAAGAAGGCACGAGCU [EX5 B.23] (Eterna round: R97, puzzle: Exclusion 5) | no
CCAGGAAGGCAGGAUAUCCAAAGCCGUCCCGGCGGAGAAGGGCUGACUUGAGGAUCACCCAAGUGAUGCCUAAC [Aratquve] (Eterna round: R97, puzzle: Exclusion 6) | no
CGCAUGUGAGGAUAUUAGUAGUAGUCAGAAAAGACUAUUACUGAGAAGGUACAUGAGGAUCACCCAUGUAUCCG [Mat - Exclusion 4 - Eli Mod - D46] (Eterna round: R97, puzzle: Exclusion 4) | yes

As a next step, examine the sequence that follows.
IN: Does the sequence GAUCGCCGUGUCAGGAUAUCUUGUGUACCCACGUUAGAGAAGGGACAUGAGGAUCACCCAUGUACCCUGGUUCU [Brourd's mod of Exclusion 4 (MOD3 of Nando's BmEX4 C.21)] (Eterna round: R97, puzzle: Brourd's mod of Exclusion 4) have recorded apparent KD of MS2 coat protein that is 20 nM or more?
OUT: no

---

Entries and their measured apparent KD of MS2 coat protein follow.
- Tested on: MS2 coat protein
- assay-notes: apparent KD of MS2 coat protein; designed switch direction (-1 OFF switch, 1 ON switch): -1; higher = weaker reporter binding
- measurement-setup: Eterna round: R95; input ligand: microRNA oligo, concentration not stated
Only the number, expressed in nM, is required.

Sample records with apparent KD of MS2 coat protein:
AAACUGCAUGUGAGGAUAUGCACCGACUAAACCGGGCAGAAGGCACAUGAGGAUCACCCAUGUCAUCCUAUUGC [Beederte] (puzzle: Brourd's mod of Exclusion 4) | 7.99
UAAUUAAGUGUGAGGAUAUGCUGGUCCUUGGAUCAGCAGAAGGCACAUGAGGAUCACCCAUGUAAUUUAUUUAU [JL bmx4 3.10] (puzzle: Brourd's mod of Exclusion 4) | 78.5
UAGGAGUCAGGAUAUGCGAGAGAUUGAAGUAAGGGAUGAGAGCAGAAGGGACAUGAGGAUCACCCAUGUAAGGA [JR_Exclu4_Sub092] (puzzle: Exclusion 4) | 43.1

IN: Provide measured apparent KD of MS2 coat protein value, entry: AAUUCACAUGAGGAUCACCCAUGUCAGGAUAUGGUUUCGCGGGUUUCGGUGCGUGAGGCCAGAAGGGACAGCUA (puzzle: Exclusion 1)
OUT: 49.2

IN: Kindly indicate its recorded apparent KD of MS2 coat protein. Item: AAUAAUCGAGGAUAUACUAAAAUAUGAAUAAAAUAAAUAAAACAUGAGGAUCACCCAUGUAGAAGGCGAAAUAA [JMF's Not so obvious solution 1] (puzzle: Exclusion 2)
OUT: 24.1

IN: For CAUGAUCUUCGGAUCAUGUACAUGAGGAUCACCCAUGUGACGAGUAGAUCCUCAAACAAGCUUUUUGCUCGUCUUAU [Sensor v3 - Turn-off variant 1 - 19] (puzzle: Sensor v3, turn-off variant 1) , write its apparent KD of MS2 coat protein.
OUT: 12.1

IN: Please look at this sequence and report its apparent KD of MS2 coat protein: UAGAUGGGAGGAUAUACGUAGUUGCAGGUUCGUGUGGUGCUACAUGAGGAUCACCCAUGUAGAAGGCCCGUCUU [JL-ex2-2.30 Mayanne mod] (puzzle: Exclusion 2)
OUT: 13.3

IN: Give apparent KD of MS2 coat protein for the following sequence: GGUGCGUAUGUGAGGAUAUGCUGGUCCUUGGCUCGGCAGAAGGCACAUGAGGAUCACCCAUGUGGUGUCGUACA [salish99_Bmod_ex4_072] (puzzle: Brourd's mod of Exclusion 4)
OUT: 73.5

IN: Recall and state the measured apparent KD of MS2 coat protein for UUUUUAGUGCUUUUUAAGUACAUGAGGAUCACCCAUGUACUUGUCUGGUGGUCCGGACAAGCUUUUUGCUCGUCUAA [Sensor v3 - turn-off variant 1 - 1] (puzzle: Sensor v3, turn-off variant 1) .
OUT: 33

IN: State its apparent KD of MS2 coat protein for this sequence: GGCAAUAACGAGGAUAUCGUAUGGGAAACCAUACGAGAAGGUGUAACAUGAGGAUCACCCAUGUUCCUCAAGCC [Mat - Exclusion 6 - Eli Mod - D66] (puzzle: Exclusion 6)
OUT: 34.6
